Test summary: folding stability dG unfold (combined trypsin and chymotrypsin); higher = more stable
Could you please report measured folding stability dG unfold for the items listed next?
The figure you give is taken to be in kJ/mol; do not add the unit.

Query string: Reported folding stability dG unfold, sequence KTITIVVKVPSLEEVEALAAELAKELNLPPGAKVEVKVEYDEETGYVVVTVTVTNPNGEKIEIKIVVELPDS [r1_84_TrROS_Hall] : ____
Result string: 12.9

Query string: Reported folding stability dG unfold, sequence SAGGSASIGEELAKELFPDLPLKVEPKEVPLEDGKTETVVTATFPDGKKVTITFEGDKIVEVTEVESAGGSA [r15_417_JUSTAS] : ____
Result string: 3

Query string: Reported folding stability dG unfold, sequence SAGGSSGSMSPVLSLFEPGTGVVTYLLKKNDKLYLLVSTGSPGVPPVPSSVSPANLAAGDPVWATAGSAGGS [r16_809_JUSTAS] : ____
Result string: 1.48

Query string: Reported folding stability dG unfold, sequence SAGGGSSSSSLTFTYDPATGKVLGSESFTIPSPSGEPRTNVLTLVEKNPSGTLKTTVLTRPVPPTLSSAGGS [r16_595_JUSTAS] : ____
Result string: 11.1

Query string: Reported folding stability dG unfold, sequence SMKSEEEKKAKELKKQKPVIVFDKETGKITVYDAKTGKKIEIEVKVKKTKDGKVEPLTEEELKKLLKKLASA [r9_1056_TrROS_Hall] : ____
Result string: 4.67

Query string: Reported folding stability dG unfold, sequence SAGGSAGGSAGSTTTTITDPANGEAYEVTSDPNGGATITNPNSSQVYYKNADTITSVGASSAGGSAGGSAGG [r17_476_JUSTAS] : ____
Result string: -0.308

Query string: Reported folding stability dG unfold, sequence SAGGSAGGSAGDLLKEALEEAKKAGIKTATITVEVDGKLYTLTVKLEPKPPPKEVKVEKKSAGGSAGGSAGG [r17_475_TrROS_Hall] : ____
Result string: 2.2

Query string: Reported folding stability dG unfold, sequence SMAKVTGYPDIFLVTIYKDGEEKTIPVNFEELVELLKKGVKKVEFTTDNPEFAEKFYKLVKSLGVPVNLKSA [r9_810_TrMRF] : ____
Result string: 9.73

Query string: Reported folding stability dG unfold, sequence SAGGSAGGSAKIWIILKDADEARDRIEELFGPGVRIEPVNIQRWDGKVYVMIEIEIPPNMTSAGGSAGGSAG [r3_87_TrROS] : ____
Result string: 9.55

Query string: Reported folding stability dG unfold, sequence SAGGKPPKIVVKVEKAPNPETGTYTYKVVLYDPVTGKAYVKPVKTKTPEELEKKAKEVAEELAKELASAGGS [r8_480_TrMRF] : ____
Result string: 4.9
